Molecular target: human parathyroid cell Ca2+ receptor (hPCaR) (Homo sapiens, UniProt P41180)
Assay: [Ca2+]i fluorescence assay in HEK 293 4.0-7 cells expressing hPCaR
Settings: buffer with 1 mM CaCl2
pEC50: −log10 of the molar value. Counter-ions that a name gives are not always drawn.
Kindly supply the reported pEC50 values for the records listed here.

Request: Given the entry `CN(CCN(CCC(c1ccccc1)c1ccccc1)C(=O)Nc1nc(-c2ccccc2)cs1)C1CCCCC1` , report its measured pEC50.
Result: 6.00 to 7.00

Request: Given the entry `O=C(O)CNCCN(CCC(c1ccccc1)c1ccccc1)C(=O)Nc1nc2ccccc2s1` , report its measured pEC50.
Result: 6.00 to 7.00

Request: Given the entry `CCOC(=O)CNCCN(CCC(c1ccccc1)c1ccccc1)C(=O)Nc1nc2ccccc2s1` , report its measured pEC50.
Result: 6.00 to 7.00

Request: Given the entry `CS(=O)(=O)c1ccc(-c2nc(NC(=O)N(CCCC(=O)O)CCC(c3ccccc3)c3ccccc3)sc2Cl)cc1` , report its measured pEC50.
Result: > 7.00

Request: Given the entry `COc1ccc(CNCCN(CCC(c2ccccc2)c2ccccc2)C(=O)Nc2nc3ccccc3s2)cn1` , report its measured pEC50.
Result: 6.00 to 7.00

Request: Given the entry `CS(=O)(=O)Nc1ccc(-c2nc(NC(=O)N(CCN[C@H]3CCCNC3)CCC(c3ccccc3)c3ccccc3)sc2Cl)cc1` , report its measured pEC50.
Result: > 7.00

Request: Given the entry `CC(C)(C)OC(=O)CCCN(CCC(c1ccccc1)c1ccccc1)C(=O)Nc1nc2ccccc2s1` , report its measured pEC50.
Result: 6.00 to 7.00

Request: Given the entry `O=C(CCN(CCC(c1ccccc1)c1ccccc1)C(=O)Nc1nc(-c2ccccc2)cs1)N[C@H]1CCCNC1` , report its measured pEC50.
Result: 6.00 to 7.00

Request: Given the entry CCOC(=O)C1CC1CNCCN(CCC(c1ccccc1)c1ccccc1)C(=O)Nc1nc2ccccc2s1 (stereo not drawn) , report its measured pEC50.
Result: 5.30 to 6.00

Request: Given the entry `CS(=O)(=O)Nc1ccc(-c2nc(NC(=O)N(CCN[C@@H]3CCCNC3)CCC(c3ccccc3)c3ccccc3)sc2Cl)cc1` , report its measured pEC50.
Result: > 7.00

Request: Given the entry CC(CN(CCC(c1ccccc1)c1ccccc1)C(=O)Nc1nc2ccccc2s1)C(=O)O (stereo not drawn) , report its measured pEC50.
Result: 5.30 to 6.00

Request: Given the entry `CS(=O)(=O)c1ccc(-c2csc(NC(=O)N(CCC(=O)O)CCC(c3ccccc3)c3ccccc3)n2)cc1` , report its measured pEC50.
Result: 6.00 to 7.00

Request: Given the entry `CCOC(=O)CCCN(CCC(c1ccccc1)c1ccccc1)C(=O)Nc1nc2ccccc2s1` , report its measured pEC50.
Result: 6.00 to 7.00

Request: Given the entry `CN(C)S(=O)(=O)NCCN(CCC(c1ccccc1)c1ccccc1)C(=O)Nc1nc2ccccc2s1` , report its measured pEC50.
Result: 6.00 to 7.00

Request: Given the entry `O=C(CCN(CCC(c1ccccc1)c1ccccc1)C(=O)Nc1nc2ccccc2s1)N1CCOCC1` , report its measured pEC50.
Result: 6.00 to 7.00

Request: Given the entry `CS(=O)(=O)Nc1ccc(-c2csc(NC(=O)N(CCCC(N)=O)CCC(c3ccccc3)c3ccccc3)n2)cc1` , report its measured pEC50.
Result: > 7.00

Request: Given the entry `C[C@@H]1CN(C(=O)CCN(CCC(c2ccccc2)c2ccccc2)C(=O)Nc2nc3ccccc3s2)CCN1` , report its measured pEC50.
Result: 5.30 to 6.00

Request: Given the entry `CN(C)C(=O)CCN(CCC(c1ccccc1)c1ccccc1)C(=O)Nc1nc2ccccc2s1` , report its measured pEC50.
Result: 6.00 to 7.00

Request: Given the entry `O=C(CCCN(CCC(c1ccccc1)c1ccccc1)C(=O)Nc1nc2ccccc2s1)NCc1ccccc1` , report its measured pEC50.
Result: > 7.00

Request: Given the entry CC(CN(CCC(c1ccccc1)c1ccccc1)C(=O)Nc1nc(-c2ccccc2)cs1)C(=O)O (stereo not drawn) , report its measured pEC50.
Result: > 7.00

Request: Given the entry `O=C(O)CN1CCC(NCCN(CCC(c2ccccc2)c2ccccc2)C(=O)Nc2nc3ccccc3s2)CC1` , report its measured pEC50.
Result: > 7.00

Request: Given the entry CS(=O)(=O)Nc1ccc(-c2csc(NC(=O)N(CCNC(=O)C3CCCNC3)CCC(c3ccccc3)c3ccccc3)n2)cc1 (stereo not drawn) , report its measured pEC50.
Result: > 7.00

Request: Given the entry `O=C(Nc1nc2ccccc2s1)N(CCNC1CCOCC1)CCC(c1ccccc1)c1ccccc1` , report its measured pEC50.
Result: 5.30 to 6.00

Request: Given the entry `CS(=O)(=O)Nc1ccc(-c2csc(NC(=O)N(CCCC(=O)NC3CCNCC3)CCC(c3ccccc3)c3ccccc3)n2)cc1` , report its measured pEC50.
Result: > 7.00

Request: Given the entry `COC(CNCCN(CCC(c1ccccc1)c1ccccc1)C(=O)Nc1nc2ccccc2s1)OC` , report its measured pEC50.
Result: 6.00 to 7.00

Request: Given the entry `O=C(O)CCCN(CCC(c1ccccc1)c1ccccc1)C(=O)Nc1nc(-c2ccccc2)c(Cl)s1` , report its measured pEC50.
Result: > 7.00

Request: Given the entry `C[C@H]1CN(C(=O)CCCN(CCC(c2ccccc2)c2ccccc2)C(=O)Nc2nc(-c3ccccc3)cs2)CCN1` , report its measured pEC50.
Result: 6.00 to 7.00

Request: Given the entry `NS(=O)(=O)c1ccc(-c2csc(NC(=O)N(CCCC(=O)O)CCC(c3ccccc3)c3ccccc3)n2)cc1` , report its measured pEC50.
Result: > 7.00

Request: Given the entry `CS(=O)(=O)NCCN(CCC(c1ccccc1)c1ccccc1)C(=O)Nc1nc2ccccc2s1` , report its measured pEC50.
Result: 6.00 to 7.00

Request: Given the entry CN(C)CC(C)(C)CNCCN(CCC(c1ccccc1)c1ccccc1)C(=O)Nc1nc2ccccc2s1 [Example 150, trihydrochloride] , report its measured pEC50.
Result: 5.30 to 6.00

* * *

Molecular target: human parathyroid cell Ca2+ receptor (hPCaR) (Homo sapiens)
Sequence (P41180 20-1078): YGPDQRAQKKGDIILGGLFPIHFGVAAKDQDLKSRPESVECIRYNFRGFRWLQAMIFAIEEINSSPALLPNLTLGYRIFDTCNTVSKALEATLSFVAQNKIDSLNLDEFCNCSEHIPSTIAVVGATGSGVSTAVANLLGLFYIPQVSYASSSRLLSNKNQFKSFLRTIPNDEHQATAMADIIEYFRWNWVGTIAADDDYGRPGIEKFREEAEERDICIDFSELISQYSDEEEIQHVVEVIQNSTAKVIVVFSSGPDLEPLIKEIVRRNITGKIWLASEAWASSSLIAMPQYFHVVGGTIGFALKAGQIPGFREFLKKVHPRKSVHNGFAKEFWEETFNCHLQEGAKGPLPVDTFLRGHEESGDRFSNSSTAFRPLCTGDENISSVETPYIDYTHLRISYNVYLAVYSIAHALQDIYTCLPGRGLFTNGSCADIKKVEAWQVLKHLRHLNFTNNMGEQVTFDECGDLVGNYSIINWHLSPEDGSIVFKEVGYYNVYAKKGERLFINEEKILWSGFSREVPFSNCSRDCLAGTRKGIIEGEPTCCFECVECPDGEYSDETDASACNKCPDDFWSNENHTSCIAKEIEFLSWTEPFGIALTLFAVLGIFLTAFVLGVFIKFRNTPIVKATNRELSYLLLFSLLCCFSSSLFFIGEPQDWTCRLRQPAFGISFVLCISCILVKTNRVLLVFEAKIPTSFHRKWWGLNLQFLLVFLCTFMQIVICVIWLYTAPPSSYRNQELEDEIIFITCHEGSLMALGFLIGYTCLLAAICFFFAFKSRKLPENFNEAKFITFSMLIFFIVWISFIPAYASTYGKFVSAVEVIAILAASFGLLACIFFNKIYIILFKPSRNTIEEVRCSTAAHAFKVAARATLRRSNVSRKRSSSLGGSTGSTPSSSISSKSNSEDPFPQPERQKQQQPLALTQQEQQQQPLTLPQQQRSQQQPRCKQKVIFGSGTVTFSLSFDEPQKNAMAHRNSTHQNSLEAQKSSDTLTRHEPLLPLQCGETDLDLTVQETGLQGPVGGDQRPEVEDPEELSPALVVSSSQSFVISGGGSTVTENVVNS
Experiment: [Ca2+]i fluorescence assay in HEK 293 4.0-7 cells expressing hPCaR
Settings: buffer with 1 mM CaCl2
Method: The activities of the compounds of the present invention on calcium receptors were measured. […] A 4.0-kb NotI-HindIII fragment of the human parathyroid cell Ca^2+ receptor (hPCaR) cDNA was subcloned into the mammalian expression vector pCEP4 (Invitrogen) containing the hygromycin-resistant gene as a selectable marker. […] Each test compound was added to the cells and the fluorescence was recorded by using excitation and emission wavelengths of 485 and 530 nm, respectively.
recorded.endpoint: EC50

Request: Given the entry CC(C)(C)OC(=O)N1CCN(C(=O)CCCN(CCC(c2ccccc2)c2ccccc2)C(=O)Nc2nc(-c3ccccc3)cs2)CC1 [Example 96] , report its measured EC50.
Result: 100 to 1000 nM

Request: Given the entry O=C(NCCCCN(CCC(c1ccccc1)c1ccccc1)C(=O)Nc1nc2ccccc2s1)C1CCNCC1 [Example 127] , report its measured EC50.
Result: < 100 nM

Request: Given the entry CN(CCN(CCC(c1ccccc1)c1ccccc1)C(=O)Nc1nc2ccccc2s1)C1CCCCC1 [Example 163] , report its measured EC50.
Result: 100 to 1000 nM

Request: Given the entry CS(=O)(=O)Nc1ccc(-c2nc(NC(=O)N(CCOC(N)=O)CCC(c3ccccc3)c3ccccc3)sc2Cl)cc1 [Example 132] , report its measured EC50.
Result: < 100 nM

Request: Given the entry O=C1CC[C@@H](NCCN(CCC(c2ccccc2)c2ccccc2)C(=O)Nc2nc(-c3ccccc3)c(Cl)s2)CN1 [Example 147] , report its measured EC50.
Result: < 100 nM

Request: Given the entry O=C(NCCCCN(CCC(c1ccccc1)c1ccccc1)C(=O)Nc1nc2ccccc2s1)C1CCCCN1 (centres unmarked) [Example 128] , report its measured EC50.
Result: < 100 nM

Request: Given the entry O=C(CCN(CCC(c1ccccc1)c1ccccc1)C(=O)Nc1nc(-c2ccccc2)cs1)N[C@@H]1CCCNC1 [Example 102] , report its measured EC50.
Result: 100 to 1000 nM

Request: Given the entry CS(=O)(=O)NCCN(CCC(c1ccccc1)c1ccccc1)C(=O)Nc1nc(-c2ccc(NS(C)(=O)=O)cc2)c(Cl)s1 [Example 139] , report its measured EC50.
Result: < 100 nM

Request: Given the entry O=C(Nc1nc2ccccc2s1)N(CCN[C@@H]1CCCNC1)CCC(c1ccccc1)c1ccccc1 [Example 145] , report its measured EC50.
Result: < 100 nM

Request: Given the entry CN1CCN(C(=O)CCCN(CCC(c2ccccc2)c2ccccc2)C(=O)Nc2nc3ccccc3s2)CC1 [Example 108] , report its measured EC50.
Result: 100 to 1000 nM

Request: Given the entry O=C1CC[C@@H](NCCN(CCC(c2ccccc2)c2ccccc2)C(=O)Nc2nc3ccccc3s2)CN1 [Example 144] , report its measured EC50.
Result: < 100 nM

Request: Given the entry C[C@H]1CNCCN1C(=O)CCN(CCC(c1ccccc1)c1ccccc1)C(=O)Nc1nc2ccccc2s1 [Example 123] , report its measured EC50.
Result: 1000 to 5000 nM

Request: Given the entry NC(=O)CCCN(CCC(c1ccccc1)c1ccccc1)C(=O)Nc1nc2ccccc2s1 [Example 80] , report its measured EC50.
Result: < 100 nM

Request: Given the entry CS(=O)(=O)Nc1ccc(-c2nc(NC(=O)N(CCCO)CCC(c3ccccc3)c3ccccc3)sc2Cl)cc1 [Example 134] , report its measured EC50.
Result: < 100 nM

Each recorded value in this set is attributed to patent US20080125424A1.
